- PROTOCOL_TEXT: Solubility in canine FaSSIF (FaSSIF-canine)
EXPERIMENTAL_ENDPOINT: solubility (µg/mL)
Numbers only, in µg/mL.

Item: CC(=O)N1CCN(c2ccc(OCC3COC(Cn4ccnc4)(c4ccc(Cl)cc4Cl)O3)cc2)CC1 (stereo not shown) | solubility: 84.2

* * *

- PROTOCOL_TEXT: physchem
- CONDITION: fassif
EXPERIMENTAL_ENDPOINT: solubility (mg/mL)
Give bare numbers, in mg/mL.

Item: OCCN(CCO)c1nc(N2CCCCC2)c2nc(N(CCO)CCO)nc(N3CCCCC3)c2n1 [dipyridamole] | solubility: 0.075
